B1: library; a variant is named by its letters at N, in order (parent)
chain: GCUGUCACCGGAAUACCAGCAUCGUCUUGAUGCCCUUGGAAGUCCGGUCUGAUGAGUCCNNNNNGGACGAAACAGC

Variants of: B1
assay text: normalized RNA/DNA level without ligand (relative to sTRSVctl = 100) (log10 (% of sTRSVctl)); higher = less ribozyme self-cleavage, higher mRNA level
condition: HEK293T, reporter: mCherry (pCS4076), ligand present: no
Quick reference: normalized RNA/DNA level without ligand (log10) of the listed items.
A bare number is all that is needed in reply.

Field: example entries. Status: answers known.
>>> value_reported("GCUGUCACCGGAAUACCAGCAUCGUCUUGAUGCCCUUGGAAGUCCGGUCUGAUGAGUCCCCGCCGGACGAAACAGC [CCGCC]")
1.96
>>> value_reported("GCUGUCACCGGAAUACCAGCAUCGUCUUGAUGCCCUUGGAAGUCCGGUCUGAUGAGUCCAAUAGGGACGAAACAGC [AAUAG]")
1.85
>>> value_reported("GCUGUCACCGGAAUACCAGCAUCGUCUUGAUGCCCUUGGAAGUCCGGUCUGAUGAGUCCAAUGGGGACGAAACAGC [AAUGG]")
1.73
>>> value_reported("GCUGUCACCGGAAUACCAGCAUCGUCUUGAUGCCCUUGGAAGUCCGGUCUGAUGAGUCCAUAUCGGACGAAACAGC [AUAUC]")
1.94
>>> value_reported("GCUGUCACCGGAAUACCAGCAUCGUCUUGAUGCCCUUGGAAGUCCGGUCUGAUGAGUCCGACGGGGACGAAACAGC [GACGG]")
1.71
>>> value_reported("GCUGUCACCGGAAUACCAGCAUCGUCUUGAUGCCCUUGGAAGUCCGGUCUGAUGAGUCCAACACGGACGAAACAGC [AACAC]")
1.91
>>> value_reported("GCUGUCACCGGAAUACCAGCAUCGUCUUGAUGCCCUUGGAAGUCCGGUCUGAUGAGUCCUACGCGGACGAAACAGC [UACGC]")
1.98
>>> value_reported("GCUGUCACCGGAAUACCAGCAUCGUCUUGAUGCCCUUGGAAGUCCGGUCUGAUGAGUCCGAAAAGGACGAAACAGC [GAAAA]")
1.3
>>> value_reported("GCUGUCACCGGAAUACCAGCAUCGUCUUGAUGCCCUUGGAAGUCCGGUCUGAUGAGUCCGAAGAGGACGAAACAGC [GAAGA]")
1.46
>>> value_reported("GCUGUCACCGGAAUACCAGCAUCGUCUUGAUGCCCUUGGAAGUCCGGUCUGAUGAGUCCUGCCGGGACGAAACAGC [UGCCG]")
2.02

variant GCUGUCACCGGAAUACCAGCAUCGUCUUGAUGCCCUUGGAAGUCCGGUCUGAUGAGUCCCCAUUGGACGAAACAGC [CCAUU] , normalized RNA/DNA level without ligand (log10) observed: 1.75

variant GCUGUCACCGGAAUACCAGCAUCGUCUUGAUGCCCUUGGAAGUCCGGUCUGAUGAGUCCCGCUUGGACGAAACAGC [CGCUU] , normalized RNA/DNA level without ligand (log10) observed: 1.62

variant GCUGUCACCGGAAUACCAGCAUCGUCUUGAUGCCCUUGGAAGUCCGGUCUGAUGAGUCCGAUCUGGACGAAACAGC [GAUCU] , normalized RNA/DNA level without ligand (log10) observed: 1.85

variant GCUGUCACCGGAAUACCAGCAUCGUCUUGAUGCCCUUGGAAGUCCGGUCUGAUGAGUCCUAGCAGGACGAAACAGC [UAGCA] , normalized RNA/DNA level without ligand (log10) observed: 1.55

variant GCUGUCACCGGAAUACCAGCAUCGUCUUGAUGCCCUUGGAAGUCCGGUCUGAUGAGUCCGAAUAGGACGAAACAGC [GAAUA] , normalized RNA/DNA level without ligand (log10) observed: 1.63
